The compounds listed here are annotated with their growth inhibition.
Experiment: NCI Yeast Anticancer Drug Screen. Data for the cln2 rad14 strain (AID 165);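 also: 0% = growth equal to vehicle treated cultures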
Details: S. cerevisiae cln2 rad14 strain, at 50.0 µM, stronger effect = higher value
Protocol: Growth inhibition of yeast strains with defined genetic alterations is measured as a screen for potential anti-cancer activity. Selected strains with alterations in DNA damage repair or cell cycle control were exposed to compounds and growth inhibition was measured relative to vehicle treated controls. The strain used in this assay is cln2 rad14
The panel holds about 79,000 compounds, 15% with a hit somewhere; the sample as a whole holds those more often. Activity calls are given as the source filed them. Rule as the data show it: active = growth inhibition above about 70%; inactive = the rest.

# COMPOUND, growth inhibition
data = [
    ("NC(=O)OC1CCN(c2cccc(Cl)c2)C1 (stereo not drawn)", "23.5% (inactive)"),
    ("CC1(C)C(=O)c2cc3ccc4ccccc4c3cc2C(C)(C)C1(C)C", "43.6% (inactive)"),
    ("CCO[Si](OCC)(OCC)c1ccccc1", "-5.85% (inactive)"),
]

====

The compounds listed here are annotated with their growth inhibition.
assay: NCI Yeast Anticancer Drug Screen. Data for the cln2 rad14 strain (AID 165);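 also: 0% = growth equal to vehicle treated cultures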; details: S. cerevisiae cln2 rad14 strain, at 50.0 µM, stronger effect = higher value
Compounds without any hit were thinned out: in the full panel of roughly 79,000, 15% have a hit. Where a SMILES comes first, the peptide text is derived from it. The star is where a group is joined. ONb = O=[N+]([O-])c1ccc(CO*)cc1; Boc = CC(C)(C)OC(=O)*
EXPERIMENTAL READOUT: growth inhibition (%)

# COMPOUND, REPORTED
rows = [
    ("CC(=O)OCCOC(=O)Nc1ccccc1", -22.2),
    ("CC(C)CC(NC(=O)OC(C)(C)C)C(=O)NC(CCC(=O)OCc1ccc([N+](=O)[O-])cc1)C(=O)OCc1ccc([N+](=O)[O-])cc1 (stereo not drawn) (Boc-Leu-Glu(ONb)-ONb; configuration not given here)", 4),
    ("C=CCc1cc(N)ccc1O", 11.8),
    ("CN(C=O)c1c(F)cc(C(=O)O)cc1F", 4.1),
    ("CCN(CC)c1cc(-c2ccccc2)oc(=O)c1Cl", 9.4),
    ("CS(C)=O.[Cl-].[Cl-].[NH-]CC(O)C[N-]CC(O)CN.[Pt+4] (stereo unspecified)", -9.65),
]

====

test: NCI Yeast Anticancer Drug Screen. Data for the sgs1 mgt1 strain (AID 161);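 also: 0% = growth of cultures given vehicle only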; details: S. cerevisiae sgs1 mgt1 strain, at 50.0 µM, stronger effect = higher value
The panel holds about 79,000 compounds, 15% with a hit somewhere; the sample as a whole holds those more often. Where a SMILES comes first, the peptide text is derived from it. [ ]: non-standard residue; d: D form. The star is where a group is joined. ξ: configuration not given here. Cbz = O=C(OCc1ccccc1)*; ξM = CSCCC(N)C(=O)O
The compounds listed here are annotated with their growth inhibition.
EXPERIMENTAL READOUT: growth inhibition (%)

# COMPOUND, UNIT, REPORTED
data = [
    ("N#Cc1cccc(/C=C\\C(=O)c2ccccc2)c1", "%", 5.4),
    ("CCCCOC(=O)C(=O)C(CC(CC)C(=O)c1ccccc1)C(=O)C=C(C)C (centres undefined)", "%", -9.55),
    ("O=c1[nH]c2c([N+](=O)[O-])cc(Cl)cc2nc1/C=C(\\O)c1cccnc1", "%", 33.8),
    ("COc1ccc(C(=O)NNC(=O)c2ccc3ccccc3c2)cc1", "%", 9.8),
    ("O=C(O)c1[nH]c(=O)[nH]c(=O)c1CN1CCCCC1", "%", -15.1),
    ("CC(=O)C1(N=Nc2ccc(S(N)(=O)=O)cc2)CCOC1=O (centres undefined)", "%", -27.1),
    ("CCCCCCCCCCOC(=O)c1ccccc1O", "%", 3.1),
    ("Cc1cc(Br)ncc1[N+](=O)[O-]", "%", -1.25),
    ("Cc1ccc(C)c(NC(=O)C(=O)CC(=O)c2cccc3ccccc23)c1", "%", 2.05),
    ("CCCCCCCCCCCc1cc(=O)n(-c2cc(Cl)ccc2Cl)n1C", "%", 99.5),
    ("NC(=O)c1cn2ccccc2c1[N+](=O)[O-]", "%", 3.35),
    ("C1=CC(c2ccccc2)=C(c2ccccc2)C(c2ccccc2)C(c2ccccc2)=C1 (centres undefined)", "%", 13.2),
    ("CCC1=C[C@H]2CN(CCc3c([nH]c4ccccc34)[C@@](C(=O)OC)(c3cc4c(cc3OC)N(C)[C@H]3[C@@](O)(C(=O)NC)[C@H](OC(C)=O)[C@]5(CC)C=CCN6CC[C@]43[C@@H]65)C2)C1", "%", 12.8),
    ("Cn1cc(C(C)(c2ccccc2)c2cn(C)c3ccccc23)c2ccccc21", "%", -4.25),
    ("CCCCCCCCCCCCCC(=O)CCCC", "%", 2.2),
    ("CC(C)=CC(=O)OC1C2C(C)C(=O)OC2C(O)C(C)C2C=CC(=O)C21C (centres undefined)", "%", 9.6),
    ("C(/C=N/NC1=NCCCN1)=N\\NC1=NCCCN1", "%", -14.6),
    ("O=C(COc1ccc(Cl)cc1)Oc1c(Cl)cc(Cl)cc1Cl", "%", 98.7),
    ("N#CC12CC=C(c3ccccc3)N=C1NC(c1ccccc1)=CC2 (centres undefined)", "%", -31.7),
    ("CCC(/C=C/c1ccccc1)=N\\NC(=O)c1ccc(Cl)cc1", "%", 7.5),
    ("COc1cc2c(c3c1/c(=N\\N=c1/c4ccccc4n(C)c4c5c(cc(OC)c14)OC(C)(C)C=C5)c1ccccc1n3C)C=CC(C)(C)O2", "%", 64.5),
    ("O=C(COc1ccc(Cl)c(Cl)c1)NCc1ccc(Cl)cc1", "%", 0.1),
    ("O=c1[nH]cnc2c1sc(=S)n2-c1ccccc1", "%", 10.2),
    ("CCCCCCCCCCCCCCCCOc1ccc(OC)cc1C(=O)NNC(=S)SC", "%", 24.6),
    ("CC(C)(C)CC(C)(O)COC(=S)S (centres undefined)", "%", 1.65),
    ("C=C(C)CCCCCCCCC", "%", 17.6),
    ("CC(c1ccccc1)n1cnc2c(N(CCO)CCO)ncnc21 (centres undefined)", "%", 9.45),
    ("CSCCC(NC(=O)CNC(=O)CNC(=O)OCc1ccccc1)C(=O)O (stereo not drawn) (Cbz-Gly-Gly-[ξM]-OH)", "%", 92.5),
    ("CCCCOC(=O)N1CCCCC1", "%", -17.3),
    ("Cc1ccc(NC(=O)c2ccccc2)cc1", "%", -2.55),
    ("CC(=O)OCC(=O)C1(O)C(C)CC2C3CCC4CC(=O)CCC4(C)C3=CCC21C (centres undefined)", "%", 0.65),
    ("O=C1c2ccccc2C(=O)N1Br", "%", 6.5),
    ("CC(C)OC(=O)c1cccnc1", "%", 7.05),
    ("Cc1[nH]c2ccc(-c3ccccc3)cc2c1CC(=O)O", "%", 47.7),
    ("CC(O)c1nc2c3ccccc3ccc2n1C (centres undefined)", "%", -6.45),
    ("O=c1[nH]c(-c2ccncc2)nnc1-c1ccc(Cl)cc1", "%", -11.5),
    ("CC(=O)Nc1c(C)n(C)n(-c2ccccc2)c1=O", "%", 23.4),
    ("CCCCCCCCCCCC(=O)c1c(O)cccc1O", "%", 7.75),
    ("Cc1ccccc1NC(=O)NNc1ccccc1", "%", 7.35),
    ("CC1OC1P(=O)(O)O (centres undefined)", "%", -4.55),
    ("CCCCCCCCCC(=O)N/N=C/c1c[nH]c2ccccc12", "%", 20.7),
    ("C(=N\\c1oc(-c2ccccc2)nc1SCc1ccccc1)/c1ccccc1", "%", 23.1),
    ("Nc1nc(Cl)c2ncn(C3OC(CO)C(O)C3O)c2n1 (centres undefined)", "%", -1.9),
    ("CCc1c2ccccc2cc2ccccc12", "%", -16.6),
]

Data credit: PubChem BioAssay (NCI)
